# measured.on: NLRP3 (Homo sapiens)
# Sequence (Q96P20 whole entry): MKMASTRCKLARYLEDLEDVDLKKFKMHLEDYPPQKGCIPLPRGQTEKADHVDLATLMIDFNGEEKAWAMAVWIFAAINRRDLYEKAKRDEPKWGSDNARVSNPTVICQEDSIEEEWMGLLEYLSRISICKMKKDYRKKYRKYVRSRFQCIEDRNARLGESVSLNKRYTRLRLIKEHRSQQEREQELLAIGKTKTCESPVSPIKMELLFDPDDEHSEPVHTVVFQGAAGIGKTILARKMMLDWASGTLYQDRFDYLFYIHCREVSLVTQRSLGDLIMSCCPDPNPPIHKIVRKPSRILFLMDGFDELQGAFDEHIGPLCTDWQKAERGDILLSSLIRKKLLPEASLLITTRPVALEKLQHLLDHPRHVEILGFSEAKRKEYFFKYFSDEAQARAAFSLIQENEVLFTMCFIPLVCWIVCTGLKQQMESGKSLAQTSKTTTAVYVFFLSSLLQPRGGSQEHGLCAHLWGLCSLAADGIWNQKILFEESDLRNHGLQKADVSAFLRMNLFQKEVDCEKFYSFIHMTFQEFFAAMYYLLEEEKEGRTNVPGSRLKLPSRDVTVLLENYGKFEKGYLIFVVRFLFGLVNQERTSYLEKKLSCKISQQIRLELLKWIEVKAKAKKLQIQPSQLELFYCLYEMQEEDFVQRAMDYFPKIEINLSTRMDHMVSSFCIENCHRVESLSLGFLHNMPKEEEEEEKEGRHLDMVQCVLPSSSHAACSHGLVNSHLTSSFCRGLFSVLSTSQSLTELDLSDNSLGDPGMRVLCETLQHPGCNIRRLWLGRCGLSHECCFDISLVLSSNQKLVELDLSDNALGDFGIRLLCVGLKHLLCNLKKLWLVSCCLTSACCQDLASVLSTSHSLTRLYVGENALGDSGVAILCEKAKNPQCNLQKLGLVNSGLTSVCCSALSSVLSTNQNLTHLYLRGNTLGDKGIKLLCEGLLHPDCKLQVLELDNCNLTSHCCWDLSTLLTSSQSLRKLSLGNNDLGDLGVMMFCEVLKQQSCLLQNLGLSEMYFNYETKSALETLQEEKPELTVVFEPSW
# procedure.summary: Human whole blood IL1β release assay
# Type: cell-based
# Set-up: Human whole blood in Li-heparin tubes was obtained from healthy donors; from tissue; host or cells: human whole blood from healthy donors, LPS-primed, nigericin-stimulated
# measurement.setup: human whole blood, 1 μg/ml LPS, nigericin 10 μM, IL-1β release; read-out: HWB IC50
Structures can show the parent of a compound that is named as a salt.
Reported IC50 values for a set of molecules

Worked cases, answers included:
molecule | IC50
COc1cc(-c2ccc3c(c2NC(=O)NS(=O)(=O)c2nc(C)cc(C)n2)CCC3)ccn1 [Example 48] | < 2.5 µM
Cc1cc(C)nc(S(=O)(=O)NC(=O)Nc2c(-c3ccnc(C#N)c3)cc(F)cc2C(C)C)n1 [Example 46] | < 2.5 µM
COc1cc(-c2ccc3c(c2NC(=O)NS(=O)(=O)c2cc(N(C)C)cnn2)CCC3)ccn1 [Example 52] | < 2.5 µM

Could you now look at the following molecule, please?
Exam item: Notebook entry, NLRP3 (Homo sapiens) assay: IC50 of CN(C)c1cncc(S(=O)(=O)NC(=O)Nc2c3c(cc4c2CCC4)CCC3)n1 [Example 27, Potassium Salt] = ?
Marked response: < 7.5 µM
